target.system: 5-hydroxytryptamine receptor 1B (Homo sapiens) (UniProt P28222)
Sequence (P28222 whole entry): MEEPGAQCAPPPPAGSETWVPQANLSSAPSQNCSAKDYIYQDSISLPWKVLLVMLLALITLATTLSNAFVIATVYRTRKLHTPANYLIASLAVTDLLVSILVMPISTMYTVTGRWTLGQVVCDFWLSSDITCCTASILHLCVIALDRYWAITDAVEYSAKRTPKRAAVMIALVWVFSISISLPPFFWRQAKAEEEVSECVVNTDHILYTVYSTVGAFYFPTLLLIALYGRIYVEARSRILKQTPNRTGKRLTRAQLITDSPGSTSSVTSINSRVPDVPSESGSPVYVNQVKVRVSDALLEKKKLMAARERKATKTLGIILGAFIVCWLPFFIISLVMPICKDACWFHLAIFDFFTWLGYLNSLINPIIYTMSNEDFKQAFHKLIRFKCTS
measurement.parameters: Compound concentration 10 µM
Description: PDSP Primary Binding target: HTR1B - Compounds are tested at 10 uM concentration, plate are incubated at room temperature in the dark for 90 minutes. Reaction are stopped by vacuum filtration onto 0.3% polyethyleneimine soaked filter mats using Filtermate harvester. Scintilation cocktail is then melted onto microwave-dried filters on a hot plate and the radio activity is counted in Microbia counter.
endpoint: inhibition (%)
Please state the figure in %; there is no need to write the unit.

So what does the record say about inhibition for CN1C[C@H](C(=O)N[C@]2(C)O[C@@]3(O)[C@@H]4CCCN4C(=O)[C@H](Cc4ccccc4)N3C2=O)C[C@@H]2c3cccc4[nH]cc(c34)C[C@H]21 ?
104

Requested field: inhibition. Item: Cc1ccc(O)c([C@H](CCN(C(C)C)C(C)C)c2ccccc2)c1
25.3

I would be grateful if you could share the reported inhibition for N#Cc1ccc(NC(=O)Nc2ccccc2Br)c2nn[nH]c12 .
1.05

Which value of inhibition has been reported for NCCc1cn(S(=O)(=O)c2c(Cl)nc3sccn23)c2ccccc12 in the records?
82.5

// lookup inhibition for CCCCCCCCCCCCCCCCOC[C@H](COP(=O)([O-])OCC[N+](C)(C)C)OC(C)=O
13.9

I am curious: what inhibition value has been reported for Clc1cccc(COc2cncc(N3CCNCC3)n2)c1 ?
89

GET /values?readout=inhibition&item= Cc1ccc2c(c1)c1c(n2CCc2ccc(C)nc2)CCN(C)C1
74.3

Give its inhibition value. Item: CCCCC#Cc1nc(NC)c2ncn([C@@H]3O[C@H](CO)[C@@H](O)[C@H]3O)c2n1
-7.26

Entry under review: OCc1cc(C(O)CNCCCCCCOCCCCc2ccccc2)ccc1O (stereo not given) . Reported inhibition?
51.1

I would be grateful if you could share the reported inhibition for Clc1cccc(Cl)c1NC1=NCCN1 .
13.1

Consider the compound shown here: CC(C)C[C@H](NC(=O)N1CCCCCC1)C(=O)N[C@H](Cc1cn(C)c2ccccc12)C(=O)N[C@H](Cc1ccccn1)C(=O)O What is its recorded inhibition?
-2.58

Endpoint output: inhibition of Cc1nc2sccn2c(=O)c1CCN1CCC(=C(c2ccc(F)cc2)c2ccc(F)cc2)CC1 . Value?
96

Dear colleague, I am looking for the recorded inhibition of the following compound: Cc1ccccc1C(=O)Nc1ccc(C(=O)N2CCCC(O)c3cc(Cl)ccc32)c(C)c1 (stereo not given)
14.4

Given the entry CC(C)(C(=O)O)c1ccc(C(O)CCCN2CCC(C(O)(c3ccccc3)c3ccccc3)CC2)cc1 (stereo not given) , report its measured inhibition.
8.43

Looking for the measured inhibition of CCCCCCCCCCCCC/C=C/[C@@H](O)[C@@H](N)COP(=O)(O)O , can you help?
8.79

Query: inhibition; subject: COc1ccc2[nH]cc(CCNC(C)=O)c2c1
12.5

Recorded inhibition of COc1cccc(-c2c(C)n(Cc3c(F)cccc3C(F)(F)F)c(=O)n(C[C@H](NCCCC(=O)O)c3ccccc3)c2=O)c1F , please.
15.5

Any idea what its inhibition is? The compound is O=C(c1cc2c(cc1F)OC(c1ccc(F)cc1)(c1ccc(Cl)cc1Cl)O2)N1CCOCC1 (stereo not given)
27.6

Could you share which inhibition value was measured for CCCNS(=O)(=O)Nc1ncnc(OCCOc2ncc(Br)cn2)c1-c1ccc(Br)cc1 ?
-0.31

What measured inhibition goes with NCCc1c[nH]c2ccc(C(N)=O)cc12 ?
101
